Quick reference: relative viability of the listed items.
tested on: NCI-H1650; assay: relative viability (nuclei count vs DMSO), 5 days (fraction); higher = more cells survive; conditions: first compound 0.5 µM

compound	tested target	relative viability
COc1cc2nccc(Oc3ccc(NC(=O)Nc4cc(C)on4)c(Cl)c3)c2cc1OC [Tivozanib] + CS(=O)(=O)N1CCN(Cc2cc3nc(-c4cccc5[nH]ncc45)nc(N4CCOCC4)c3s2)CC1 [Pictilisib] (partner 1 µM)	NCI-H1650	0.498
COc1cc2nccc(Oc3ccc(NC(=O)Nc4cc(C)on4)c(Cl)c3)c2cc1OC [Tivozanib] + CC(=O)Nc1cccc(-n2c(=O)n(C3CC3)c(=O)c3c(Nc4ccc(I)cc4F)n(C)c(=O)c(C)c32)c1 [Trametinib] (partner 0.02 µM)	NCI-H1650	0.547
COc1cc2nccc(Oc3ccc(NC(=O)Nc4cc(C)on4)c(Cl)c3)c2cc1OC [Tivozanib] + Nc1nc2[nH]cc(CCc3ccc(C(=O)N[C@@H](CCC(=O)O)C(=O)O)cc3)c2c(=O)[nH]1 [Pemetrexed] (partner 0.2 µM)	NCI-H1650	0.354
COc1cc2nccc(Oc3ccc(NC(=O)Nc4cc(C)on4)c(Cl)c3)c2cc1OC [Tivozanib] + CC(=O)c1c(C)c2cnc(Nc3ccc(N4CCNCC4)cn3)nc2n(C2CCCC2)c1=O [Palbociclib] (partner 0.5 µM)	NCI-H1650	0.319
